System: 598228-144-R-J1-PDC complex spheroid viability
Test: Anticancer human tumor 598228-144-R-J1-PDC patient-derived serous endometrial adenocarcinoma cell line growth inhibition [GQUAD]
Conditions: second compound 0.0316 µM; first compound 0.316 µM; active compounds read low
Could you mark each record T if its viability, T/C falls strictly under 70%, and F if it equals or exceeds it?

For orientation, consider the following solved cases.
compound	class_name
Cn1ncnc1[C@H]1c2n[nH]c(=O)c3cc(F)cc(c23)N[C@@H]1c1ccc(F)cc1 + Cc1cnc(CNC(=O)c2c(=O)c3ccc(N4CCCN(C)CC4)nc3n3c2sc2ccccc23)cn1	T
CC1COCCN1c1cc(C2(O)CC3CCC(C2)O3)c2cnn(-c3ccn[nH]3)c2n1 (stereo unspecified) + CN(C)c1ccc(Nc2c3ccc(NC(=O)CCN4CCCC4)cc3nc3cc(NC(=O)CCN4CCCC4)ccc23)cc1	T
Cc1cccc(N(C)C(=O)C2C(O)CCN2c2nc(C)cc(C(F)(F)F)c2C#N)c1 (stereo unspecified) + CN(C)c1ccc(Nc2c3ccc(NC(=O)CCN4CCCC4)cc3nc3cc(NC(=O)CCN4CCCC4)ccc23)cc1	F
CC1COCCN1c1cc(C2(O)CC3CCC(C2)O3)c2cnn(-c3ccn[nH]3)c2n1 (stereo unspecified) + Cc1[nH]c2ccc(F)cc2c1-c1nc2c3cccnc3c3ncccc3c2[nH]1	T

Input: Is 70% strictly greater than the compound's reported viability, T/C? compound: C=CC(=O)N1CCN(c2nc(=O)n(-c3c(C)ccnc3C(C)C)c3nc(-c4c(O)cccc4F)c(F)cc23)C(C)C1 (stereo unspecified) + CN(C)c1ccc(Nc2c3ccc(NC(=O)CCN4CCCC4)cc3nc3cc(NC(=O)CCN4CCCC4)ccc23)cc1
Output: F

Input: Hello, is viability, T/C of the following compound strictly smaller than 70%? CC1COCCN1c1cc(-c2ccnn2C)c2ccnc(-c3ccn[nH]3)c2n1 (stereo unspecified) + CN(C)c1ccc(Nc2c3ccc(NC(=O)CCN4CCCC4)cc3nc3cc(NC(=O)CCN4CCCC4)ccc23)cc1
Output: T

Input: In plain terms, does CCCS(=O)(=O)Nc1ccc(F)c(C(=O)c2c[nH]c3ncc(-c4ccc(Cl)cc4)cc23)c1F + Cc1cnc(CNC(=O)c2c(=O)c3ccc(N4CCCN(C)CC4)nc3n3c2sc2ccccc23)cn1 come in under 70% for viability, T/C?
Output: F

Input: Answer whether the compound CC(C)(O)C1CCC(Nc2ccc3ncc(-c4cccc(C(F)(F)F)c4)n3n2)CC1 (stereo unspecified) + Cc1cnc(CNC(=O)c2c(=O)c3ccc(N4CCCN(C)CC4)nc3n3c2sc2ccccc23)cn1 has viability, T/C strictly less than 70%
Output: F

Input: Lab note: viability, T/C threshold 70%. Does this compound come in strictly under it? CC(C)(O)C1CCC(Nc2ccc3ncc(-c4cccc(C(F)(F)F)c4)n3n2)CC1 (stereo unspecified) + Cc1[nH]c2ccc(F)cc2c1-c1nc2c3cccnc3c3ncccc3c2[nH]1
Output: F

Input: Please let me know if Cc1cccc(N(C)C(=O)C2C(O)CCN2c2nc(C)cc(C(F)(F)F)c2C#N)c1 (stereo unspecified) + Cc1cnc(CNC(=O)c2c(=O)c3ccc(N4CCCN(C)CC4)nc3n3c2sc2ccccc23)cn1 shows viability, T/C below 70%.
Output: F

Input: viability, T/C under 70%? Item: CC(C)n1c(=O)n(C)c2cnc3cc(F)c(-c4ccc(OCCCN5CCCCC5)nc4)cc3c21 + Cc1[nH]c2ccc(F)cc2c1-c1nc2c3cccnc3c3ncccc3c2[nH]1
Output: F

Input: Is viability, T/C strictly under 70% for the entry COc1ccc([C@@H](O)c2cc(-c3ncnc4cc(N5CCOCC5)ccc34)c(F)cc2Cl)nn1 + Cc1[nH]c2ccc(F)cc2c1-c1nc2c3cccnc3c3ncccc3c2[nH]1 ?
Output: F

====

Tested on: 598228-144-R-J1-PDC complex spheroid viability
Experiment: Anticancer human tumor 598228-144-R-J1-PDC cell line growth inhibition [GQUAD];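 also: spheroids exposed to the agents for one week before reading; percent of vehicle DMSO control viability so 100% = untreated growth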
Settings: second compound 3.16 µM; first compound 0.0316 µM; active compounds read low
measured_metric: viability, T/C (%)
A number alone suffices; assume %.

Below, 9 compounds whose answers are already recorded.
compound	numeric_readout
Cc1cccc(N(C)C(=O)C2C(O)CCN2c2nc(C)cc(C(F)(F)F)c2C#N)c1 (stereo not given) + CN(C)c1ccc(Nc2c3ccc(NC(=O)CCN4CCCC4)cc3nc3cc(NC(=O)CCN4CCCC4)ccc23)cc1	114
C#Cc1c(F)ccc2cc(O)cc(-c3ncc4c(N5CC6CCC(C5)N6)nc(OCC56CCCN5CC(F)C6)nc4c3F)c12 (stereo not given) + CN(C)c1ccc(Nc2c3ccc(NC(=O)CCN4CCCC4)cc3nc3cc(NC(=O)CCN4CCCC4)ccc23)cc1	106
CC(=O)O[C@H]1C(=O)[C@@]2(C)[C@H]([C@H](OC(=O)c3ccccc3)[C@]3(O)C[C@H](OC(=O)[C@H](O)[C@@H](NC(=O)c4ccccc4)c4ccccc4)C(C)=C1C3(C)C)[C@]1(OC(C)=O)CO[C@@H]1C[C@@H]2O + CN(C)c1ccc(Nc2c3ccc(NC(=O)CCN4CCCC4)cc3nc3cc(NC(=O)CCN4CCCC4)ccc23)cc1	51.6
Cn1ncnc1[C@H]1c2n[nH]c(=O)c3cc(F)cc(c23)N[C@@H]1c1ccc(F)cc1 + CN(C)c1ccc(Nc2c3ccc(NC(=O)CCN4CCCC4)cc3nc3cc(NC(=O)CCN4CCCC4)ccc23)cc1	80.7
O=c1[nH]cc(F)c(=O)[nH]1 + Cc1cnc(CNC(=O)c2c(=O)c3ccc(N4CCCN(C)CC4)nc3n3c2sc2ccccc23)cn1	56.1
O=C(c1cc(Cc2n[nH]c(=O)c3ccccc23)ccc1F)N1CCN(C(=O)C2CC2)CC1 + CN(C)c1ccc(Nc2c3ccc(NC(=O)CCN4CCCC4)cc3nc3cc(NC(=O)CCN4CCCC4)ccc23)cc1	98.8
Cn1ncnc1[C@H]1c2n[nH]c(=O)c3cc(F)cc(c23)N[C@@H]1c1ccc(F)cc1 + Cc1cnc(CNC(=O)c2c(=O)c3ccc(N4CCCN(C)CC4)nc3n3c2sc2ccccc23)cn1	58.5
CC(C)n1c(=O)n(C)c2cnc3cc(F)c(-c4ccc(OCCCN5CCCCC5)nc4)cc3c21 + Cc1cnc(CNC(=O)c2c(=O)c3ccc(N4CCCN(C)CC4)nc3n3c2sc2ccccc23)cn1	50.4
C#Cc1c(F)ccc2cc(O)cc(-c3ncc4c(N5CC6CCC(C5)N6)nc(OCC56CCCN5CC(F)C6)nc4c3F)c12 (stereo not given) + Cc1cnc(CNC(=O)c2c(=O)c3ccc(N4CCCN(C)CC4)nc3n3c2sc2ccccc23)cn1	46.5

Now consider a different compound.
Input: Query (compound): O=c1[nH]cc(F)c(=O)[nH]1 + CN(C)c1ccc(Nc2c3ccc(NC(=O)CCN4CCCC4)cc3nc3cc(NC(=O)CCN4CCCC4)ccc23)cc1 ; field requested: viability, T/C
Output: 81

====

Test system: 598228-144-R-J1-PDC complex spheroid viability
Test: Anticancer human tumor 598228-144-R-J1-PDC cell line growth inhibition [GQUAD]; active = viability on the fitted dose curve at most 10% of control; inactive = the rest;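 also: spheroids exposed to the agents for one week before reading; percent of vehicle DMSO control viability so 100% = untreated growth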
Details: second compound 0.1 µM; first compound 3.16 µM
Excerpt: DNA G-quadruplex Stabilizer Agents in Combinations in Complex Spheroids A high-throughput screen of multi-cell type tumor spheroids was designed to identify active combinations of DNA G-quadruplex stabilizer agents and targeted small molecules. […] Compounds. […] If the clinical Cmax for an agent had not been determined, the highest concentration tested was 10 microM. […]
Thanks in advance; please answer with one of these: active, inactive

Reference set, count: 5
compound	class_name
C#Cc1c(F)ccc2cc(O)cc(-c3ncc4c(N5CC6CCC(C5)N6)nc(OCC56CCCN5CC(F)C6)nc4c3F)c12 (stereo unspecified) + Cc1cnc(CNC(=O)c2c(=O)c3ccc(N4CCCN(C)CC4)nc3n3c2sc2ccccc23)cn1	inactive
O=c1[nH]cc(F)c(=O)[nH]1 + Cc1[nH]c2ccc(F)cc2c1-c1nc2c3cccnc3c3ncccc3c2[nH]1	inactive
Cc1cccc(N(C)C(=O)C2C(O)CCN2c2nc(C)cc(C(F)(F)F)c2C#N)c1 (stereo unspecified) + Cc1[nH]c2ccc(F)cc2c1-c1nc2c3cccnc3c3ncccc3c2[nH]1	inactive
COc1ncnc(C2CC2)c1-c1ncc2cnn(Cc3ccc(-c4nc(C(F)(F)F)cn4C(C)C)cc3)c2n1 + Cc1[nH]c2ccc(F)cc2c1-c1nc2c3cccnc3c3ncccc3c2[nH]1	inactive
CC1COCCN1c1cc(C2(S(C)(=N)=O)CC2)nc(-c2ccnc3[nH]ccc23)n1 (stereo unspecified) + Cc1[nH]c2ccc(F)cc2c1-c1nc2c3cccnc3c3ncccc3c2[nH]1	inactive

Please find the next compound below.
Input: Could you kindly confirm the outcome this assay logged for CC(=O)O[C@H]1C(=O)[C@@]2(C)[C@H]([C@H](OC(=O)c3ccccc3)[C@]3(O)C[C@H](OC(=O)[C@H](O)[C@@H](NC(=O)c4ccccc4)c4ccccc4)C(C)=C1C3(C)C)[C@]1(OC(C)=O)CO[C@@H]1C[C@@H]2O + Cc1cnc(CNC(=O)c2c(=O)c3ccc(N4CCCN(C)CC4)nc3n3c2sc2ccccc23)cn1 ?
Output: inactive
